- methodNotes: in vitro
- testContext: African green monkey, CC50 (Human Adenovirus Type 5)
Provide the recorded CC50 for the entries that follow.

Oc1ccc(CCNc2ncnc3c2ncn3C[C@H]2[C@@H]3CC(O)[C@H]2C[C@@H]3Cl)cc1 (some centres unmarked)    217 µM
OC1C[C@H]2[C@H](Cn3cnc4c(Cl)ncnc43)[C@@H]1C[C@@H]2Cl (some centres unmarked)    > 958 µM
O=c1ccn(C[C@@H]2[C@@H]3C[C@H](Cl)[C@H]2C[C@H]3O)c(=O)[nH]1    > 1110 µM
Cc1cn(C[C@H]2[C@@H]3CC(O)[C@H]2C[C@@H]3Cl)c(=O)[nH]c1=O (some centres unmarked)    > 1050 µM
OC1C[C@H]2[C@H](Cn3cnc4c(NC5CC5)ncnc43)[C@@H]1C[C@@H]2Cl (some centres unmarked)    > 899 µM

Record CC50 per entry; entries follow.
1. CCOc1ncnc2c1ncn2C[C@H]1[C@@H]2CC(O)[C@H]1C[C@@H]2Cl (some centres unmarked)
2. OC[C@@H](Cc1ccccc1)Nc1ncnc2c1ncn2C[C@H]1[C@@H]2CC(O)[C@H]1C[C@@H]2Cl (some centres unmarked)
3. OC1C[C@H]2[C@H](Cn3cnc4c(NC5CCCC5)ncnc43)[C@@H]1C[C@@H]2Cl (some centres unmarked)
4. CN1CCN(c2ncnc3c2ncn3C[C@H]2[C@@H]3CC(O)[C@H]2C[C@@H]3Cl)CC1 (some centres unmarked)
5. OC1C[C@H]2[C@H](Cn3cnc4c(NC5CCCCC5)ncnc43)[C@@H]1C[C@@H]2Cl (some centres unmarked)

["> 929 µM", "> 701 µM", "824 µM", "> 796 µM", "697 µM"]

Record CC50 per entry; entries follow.
1. Nc1ccn(C[C@H]2[C@@H]3CC(O)[C@H]2C[C@@H]3Cl)c(=O)n1 (some centres unmarked)
2. O=c1[nH]c(=O)n(C[C@H]2[C@@H]3CC(O)[C@H]2C[C@@H]3Cl)cc1F (some centres unmarked)

["> 1110 µM", "> 1040 µM"]
